- Organism: Rattus norvegicus
- test name: DrugMatrix - Regimen: Daily Repeat
- Type: toxicity, organism-based, Sprague-Dawley
- Design: regimen Daily Repeat, gender Male, age 6-8 weeks
- condition: in vivo, po, 0 mg/kg, 120 h, tissue Plasma, route oral GAVAGE, dose level Control, time 5 day, vehicle .5 % CMC
One threshold, 10 u/L, splits the recorded LIPASE values: lower ones are 1.0, equal or higher ones are 0.0.

Use the examples below as a reference point.
NC(=O)CN1CCCC1=O ... 1.0
NCC(CC(=O)O)c1ccc(Cl)cc1 (configuration not stated) ... 1.0
CN(C)CCOC(c1ccccc1)c1ccccc1.Cn1c(=O)c2[nH]c(Cl)nc2n(C)c1=O [DIMENHYDRINATE] ... 0.0
CCOc1cc(N)c(Cl)cc1C(=O)NCC1CN(Cc2ccc(F)cc2)CCO1 (configuration not stated) [MOSAPRIDE] ... 1.0

Quick check: LIPASE of CCN1CCCC1CNC(=O)c1cc(S(N)(=O)=O)ccc1OC (configuration not stated) [SULPIRIDE] under 10 u/L?
0.0

Quick check: LIPASE of COc1cc(/C=C/C(=O)O)ccc1O [FERULATE] under 10 u/L?
1.0

###

- Organism: Rattus norvegicus
- test name: DrugMatrix - Regimen: Daily Repeat
- Type: toxicity, organism-based, Sprague-Dawley
- Parameters: regimen Daily Repeat, gender Male, age 6-8 weeks
- condition: in vivo, po, 0 mg/kg, 72 h, tissue Plasma, route oral GAVAGE, dose level Control, time 3 day, […]
quantity: CHOLESTEROL (mg/dL)
One number for each entry, in mg/dL.

CC(C)(c1ccc(O)cc1)c1ccc(O)cc1 ... 67.17
CC#C[C@]1(O)CC[C@H]2[C@@H]3CCC4=CC(=O)CCC4=C3[C@@H](c3ccc(N(C)C)cc3)C[C@@]21C ... 71.33
O=C(Nc1ccc(Cl)c(Cl)c1)c1cc(Cl)cc(Cl)c1O [3,3',4',5-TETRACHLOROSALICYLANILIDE] ... 69.17

Supply recorded CHOLESTEROL for c1ccc2c(c1)Nc1ccccc1S2 here.
70.5

###

- Organism: Rattus norvegicus
- test name: DrugMatrix - Regimen: Daily Repeat
- Type: toxicity, organism-based, Sprague-Dawley
- Parameters: regimen Daily Repeat, gender Male, age 6-8 weeks
- condition: in vivo, po, 0 mg/kg, 120 h, tissue Blood, route oral GAVAGE, dose level Control, time 5 day, vehicle 100 % WATER
One threshold, 8%, splits the recorded NEUTROPHIL values: lower ones are met, equal or higher ones are not met.

NN [HYDRAZINE] ... not met
Cc1cn([C@H]2C=C[C@@H](CO)O2)c(=O)[nH]c1=O [STAVUDINE] ... met
CCC1(c2ccccc2)C(=O)NC(=O)NC1=O [PHENOBARBITAL] ... not met
C[N+](C)(C)CCOC(N)=O.[Cl-] [CARBACHOL] ... met
CN1C(=O)OC(C)(C)C1=O [TRIMETHADIONE] ... not met
Cc1cc(C(C)(C)C)c(O)c(C)c1CC1=NCCN1 [OXYMETAZOLINE] ... not met

--- query ---
Quick check: NEUTROPHIL of CCN(CC)C(=S)SSC(=S)N(CC)CC under 8%?
met

###

- Species: Rattus norvegicus
- test name: DrugMatrix - Regimen: Daily Repeat
- Format: toxicity, organism-based, Sprague-Dawley
- Design: regimen Daily Repeat, gender Male, age 6-8 weeks
- condition: in vivo, po, 0 mg/kg, 72 h, tissue Plasma, route oral GAVAGE, dose level Control, time 3 day, vehicle 100 % WATER
Give measured LIPASE for each item. Keep answers brief.
One number for each entry, in u/L.

C1CCN2C[C@@H]3C[C@@H](CN4CCCC[C@@H]34)[C@H]2C1 ... 9.5
C[N+](C)(C)CCOC(N)=O.[Cl-] ... 9.5
CCN(CC)C(=S)SSC(=S)N(CC)CC ... 11.17
NN [HYDRAZINE] ... 11.17
Cc1cc(C(C)(C)C)c(O)c(C)c1CC1=NCCN1 ... 9.67

Parameter requested: LIPASE. Apply to each item below.
1. CC(Cl)(Cl)Cl
2. Cc1cn([C@H]2C=C[C@@H](CO)O2)c(=O)[nH]c1=O

1. 9.5
2. 9.5

Supply recorded LIPASE for CCC1(c2ccccc2)C(=O)NC(=O)NC1=O here.
9.5

Values were extracted from ChEMBL document CHEMBL3885881.
